assay: small-molecule binders of probe aNOTCH3, primary screen, biochemical, small-molecule microarray, 635/667 nm fluorescence (AID 1120); conditions: higher = more signal;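 further: probe is a biotin-tagged antibody raised against NOTCH3 rather than NOTCH3 protein; score merges spot fluorescence near 667 nm with spot signal to noise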
// composite z-score lookup, one value per entry
Number only, no unit.

# molecule, composite z-score
data = [
    ("C=CCNC(=O)[C@H]1[C@@H]2C(=O)O[C@@H](c3ccccc3)[C@@H](c3ccccc3)N2[C@@H](c2ccccc2OCCO)[C@]12C(=O)N(C(=O)OCCOC)c1ccc(C#CCC(C(=O)OC)C(=O)OC)cc12", -0.0448),
    ("Cc1ccc(S[C@]2(C(=O)NC(C)C)CC(=O)N(C3Cc4ccccc4C3)[C@@H]2c2ccc(CO)cc2)cc1", -0.409),
    ("CCN1C(C)=C(C(=O)OC)[C@@H](c2ccccc2)N2C(=O)[C@@]3(C(=O)OC)O[C@@]12[C@@H]1C(=O)CCC[C@@H]13", -0.0345),
    ("C=CCC(OC(C)=O)[C@@H]1[C@@H](N(Cc2cc3ccccc3o2)C(=O)Cc2ccc(F)cc2)c2cc(OCCCO)ccc2N1C(=O)c1ccc(-c2ccccc2)cc1 (stereo partly specified)", -0.0881),
]

Exercise: Reported composite z-score, molecule N#Cc1ccc(NN2C(C(O)c3ccc(I)cc3)C=CC3C(=O)N(c4ccccc4)C(=O)C32)cc1 (stereo unspecified) : ____
Key: 0.212

Exercise: Reported composite z-score, molecule C=CCN1C(=O)[C@@]2(O[C@@H](CCn3cc([C@H](O)c4ccccc4)nn3)[C@H]([Si](C)(C)c3ccc(OC)cc3)[C@H]2C)c2cc(N3CCOC3=O)ccc21 : ____
Key: -0.0932

###

target: Fibroblast growth factor 10 (Homo sapiens); experiment: FGF10 binders on small-molecule microarrays, primary screen, biochemical, small-molecule microarray, 635 nm fluorescence (AID 1102); conditions: FGF10 binding, fluorescence 635 nm, higher = more signal
// composite z-score lookup, one value per entry
Number only, no unit.

# compound, observed_measurement
records = [
    ("C=CC[C@]1(C(=O)O)N=C(c2ccc(OCCCO)cc2)O[C@H]1c1ccccc1N=[N+]=[N-]", -0.103),
    ("C/C(=N\\O)C(=O)NCCCCCNC(=O)OCc1ccccc1", 0.554),
    ("C=CCN1C(=O)[C@@]2(O[C@@H](CCn3cc([C@H](O)c4ccccc4)nn3)[C@H]([Si](C)(C)c3ccc(OC)cc3)[C@H]2C)c2cc(N3CCOC3=O)ccc21", 0.0752),
    ("COCCOC(=O)N1C(=O)[C@@]2(c3cc(C#CC4(O)CCCCCC4)ccc31)[C@H](C(=O)N1CCCCCCC1)[C@H]1C(=O)O[C@H](c3ccccc3)[C@H](c3ccccc3)N1[C@@H]2c1ccc(O)cc1", 0.808),
    ("CO[C@]12C=C(Br)[C@@H](C[C@@H]1c1ccccc1)[C@@]1(CO1)C2=O", 0.342),
    ("CO[C@H]1COC(=O)CC=C[C@@H](C)COC(=O)[C@@H](C)NC(=O)CC=C[C@@H]1C", 0.567),
]

Exercise: Reported composite z-score, compound C=C[C@H](OC)[C@@H](OC(=O)Nc1ccc(SC)cc1)c1ccc(OC)c(O)c1 : ____
Key: -0.337

Exercise: Reported composite z-score, compound O=C1OCC=C[C@H]2OC34C=CCN(Cc5ccccc5)C(=O)[C@H]3N(CCO)C(=O)[C@@H]4[C@@H]12 (stereo partly drawn) : ____
Key: -1.09
